# protein stability index annotations
B1: ZNF449 (parent)
chain: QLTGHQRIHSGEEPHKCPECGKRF

Variants of: B1
Assay: protein stability index of a GFP-peptide fusion (GPS, HEK-293T) (PSI 1-6); higher = more stable;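 further: lentivirally expressed fusions sorted by FACS into six bins by GFP to DsRed ratio, PSI derived from sequencing read proportions per bin multiplied by bin number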
Conditions: c terminus: a fixed tail appended

| construct.sequence | observed.property | result |
| --- | --- | --- |
| QLTGHQRIHSGEEPKKCPECGKRF [H15K] | protein stability index | 3.66 |
| QLTGHQRIISGEEPHKCPECGKRF [H9I] | protein stability index | 3.8 |
| QLTGHQRIHSGEEPHKCPECGKGF [R23G] | protein stability index | 4.32 |
| QLTGHQRINSGEEPHKCPECGKRF [H9N] | protein stability index | 4.13 |
| QLTGHQRIHSGEAPHKCPECGKRF [E13A] | protein stability index | 4.21 |

variant QLTGHQRIHSGEEPHKCPECGKFF [R23F] , protein stability index observed: 3.98

Reported protein stability index ( QLTGHMRIHSGEEPHKCPECGKRF [Q6M] ) = 3.68

Value of protein stability index reported for the variant QLTGHQRIHSGEEPHKIPECGKRF [C17I] is 4.4

So for QLTGHQRIHSGEEPHKCPECGKRE [F24E] , the logged protein stability index turned out to be 4.88

What the record says about QLTGHQRIHSGSEPHKCPECGKRF [E12S] : protein stability index is 3.96

// protein stability index lookup, variant = QLTGHQRIHSFEEPHKCPECGKRF [G11F] , result: 3.77
